Each entry below carries its reported IC50.
Molecular target: human ROR1 (Homo sapiens)
Construct: host or cells: HEK 293T cells, Tet-on system induced with doxycycline
Sequence (Q01973 30-937): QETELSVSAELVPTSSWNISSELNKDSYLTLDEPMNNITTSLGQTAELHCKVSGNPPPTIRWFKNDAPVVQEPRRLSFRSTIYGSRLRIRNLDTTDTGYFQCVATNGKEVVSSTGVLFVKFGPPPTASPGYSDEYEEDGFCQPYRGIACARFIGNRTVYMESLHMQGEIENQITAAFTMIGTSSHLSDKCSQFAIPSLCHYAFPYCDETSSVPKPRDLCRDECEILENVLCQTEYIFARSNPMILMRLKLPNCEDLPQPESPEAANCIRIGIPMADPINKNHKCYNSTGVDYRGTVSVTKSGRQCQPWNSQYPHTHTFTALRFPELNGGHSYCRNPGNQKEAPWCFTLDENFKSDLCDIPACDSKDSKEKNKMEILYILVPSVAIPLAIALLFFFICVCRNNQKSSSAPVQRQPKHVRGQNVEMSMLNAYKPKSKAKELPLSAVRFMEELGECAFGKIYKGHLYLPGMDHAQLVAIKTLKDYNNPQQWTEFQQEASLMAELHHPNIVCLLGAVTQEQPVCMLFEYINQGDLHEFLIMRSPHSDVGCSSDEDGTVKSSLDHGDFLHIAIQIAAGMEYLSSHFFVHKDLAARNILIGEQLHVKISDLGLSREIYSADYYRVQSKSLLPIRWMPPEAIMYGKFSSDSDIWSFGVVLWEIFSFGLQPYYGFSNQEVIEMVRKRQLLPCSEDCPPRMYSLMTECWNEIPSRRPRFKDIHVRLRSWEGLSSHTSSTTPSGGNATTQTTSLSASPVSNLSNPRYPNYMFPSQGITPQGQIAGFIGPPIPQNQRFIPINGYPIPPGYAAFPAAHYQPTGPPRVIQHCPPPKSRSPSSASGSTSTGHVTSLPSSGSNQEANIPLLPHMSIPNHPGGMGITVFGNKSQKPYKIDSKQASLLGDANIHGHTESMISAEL
Experiment: ROR1 high content cell-based binding assay
Conditions: read-out: ROR1 Binding 293T Human HC Cell Based Assay IC50
Experimental: ROR1 high content cell-based binding assay: Human embryonic kidney 293T cells (293T) expressing human ROR1 with Tet-on system by doxycycline were used (Arctic-488134) for the assessment of inhibition of the binding of fluorescently-labeled competing peptide (“Probe”) that specifically binds to human ROR1. […] Cryopreserved vials were thawed in a 37° C. water bath. Cells were washed in assay culture media [DMEM (Life Technologies Inc. Cat. […]
Positions of bridges follow the written chain, without caps; N, C: chain ends. Non-standard residues stand in square brackets, D forms with d. Residues, ends and D or L forms follow the SMILES beside them. ξ: configuration not given here. NMeF = CN[C@@H](Cc1ccccc1)C(=O)O; ξY = NC(Cc1ccc(O)cc1)C(=O)O
Reply with just the number (in nM).

Here's what some known entries look like.
{"columns": ["compound", "IC50 [nM]"],
 "data": [
  ["CC(C)C[C@@H]1NC(=O)[C@H](CC(C)C)NC(=O)[C@H](Cc2ccccc2)N(C)C(=O)CNC(=O)[C@H](Cc2ccc(O)cc2)NC(=O)[C@H](Cc2ccccc2)NC(=O)CSC[C@@H](C(N)=O)NC(=O)[C@H](Cc2c[nH]c3ccccc23)NC(=O)[C@H](Cc2ccc(O)cc2)NC1=O [Example 1106] ({CH2CO}-FYG[NMeF]LLYWC-NH2; thioether N-9)", 483],
  ["CC[C@H](C)[C@@H]1NC(=O)[C@H](Cc2ccccc2)NC(=O)CSC[C@@H](C(N)=O)NC(=O)[C@H](C)NC(=O)[C@H](Cc2ccc(O)cc2)NC(=O)[C@H](Cc2ccc(O)cc2)NC(=O)[C@H](Cc2c[nH]c3ccccc23)NC(=O)CNC(=O)[C@H](Cc2ccc(O)cc2)NC(=O)[C@H](CCCNC(=N)N)NC(=O)[C@H](C(C)C)NC(=O)[C@H](Cc2c[nH]c3ccccc23)NC1=O [Example 1049] ({CH2CO}-FIWVRYGWYYAC-NH2; thioether N-12)", 19],
  ["CC(C)C[C@@H]1NC(=O)[C@H](Cc2ccc(O)cc2)NC(=O)[C@H](Cc2ccccc2)NC(=O)CSC[C@@H](C(=O)NCC(N)=O)NC(=O)[C@H](CC(C)C)NC(=O)[C@H](Cc2ccccc2)N(C)C(=O)[C@H](Cc2ccc(O)cc2)NC(=O)[C@H](Cc2c[nH]c3ccccc23)NC(=O)CNC(=O)[C@H](CO)NC(=O)[C@H](CO)NC(=O)[C@H](C(C)C)NC1=O [Example 1026] ({CH2CO}-FYLVSSGWY[NMeF]LCG-NH2; thioether N-12)", 59],
  ["CC(C)C[C@@H]1NC(=O)[C@H](Cc2ccc(O)cc2)NC(=O)[C@H](Cc2ccccc2)NC(=O)CSC[C@@H](C(=O)NCC(N)=O)NC(=O)[C@H](CC(C)C)NC(=O)[C@H](Cc2ccccc2)N(C)C(=O)C(Cc2ccc(O)cc2)NC(=O)[C@H](Cc2c[nH]c3ccccc23)NC(=O)[C@@H](C)NC(=O)[C@H](CO)NC(=O)[C@H](Cc2ccc(O)cc2)NC(=O)[C@H](C(C)C)NC1=O (some centres unmarked) [Example 1059] ({CH2CO}-FYLVYS[dA]W[ξY][NMeF]LCG-NH2; thioether N-12)", 93]
]}

## Task Look at this compound and give its reported IC50. CC(C)C[C@@H]1NC(=O)[C@H](Cc2ccc(O)cc2)NC(=O)[C@H](Cc2ccccc2)NC(=O)CSC[C@@H](C(=O)NCC(N)=O)NC(=O)[C@H](CC(C)C)NC(=O)[C@H](Cc2ccccc2)N(C)C(=O)[C@H](Cc2ccc(O)cc2)NC(=O)[C@H](Cc2c[nH]c3ccccc23)NC(=O)CNC(=O)[C@H](CCCNC(=N)N)NC(=O)CNC(=O)[C@H](C(C)C)NC1=O [Example 1033] ({CH2CO}-FYLVGRGWY[NMeF]LCG-NH2; thioether N-12)
## Result 768
